measured on: ZFP SBS#1032 (synthetic)
Sequence (chain, as listed by the source): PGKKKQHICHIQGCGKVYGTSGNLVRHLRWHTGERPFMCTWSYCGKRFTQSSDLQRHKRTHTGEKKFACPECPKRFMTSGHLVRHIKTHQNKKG
protocol notes: EMSA
experimental setup: tags: MBP fusion
quantity name: Kd (nM)
Return type: number; implicit unit nM.

For record GGTGCTGAT (dsDNA) DNA 1: GGTGCTGAT DNA 2: ATCAGCACC the listed Kd is 0.52

Taken from patent US20030068675.
